Assay: Oral pharmacokinetic (bioavailability) study in rats
Assay type: in vivo
Settings: male, Sprague Dawley; rat plasma, single oral dose 150 mg/kg Cur
readout kind: AUC(0-inf) (ng·h/mL)
Numbers only here, please. The scale is ng·h/mL.

// sample COc1cc(/C=C/C(=O)CC(=O)/C=C/c2ccc(O)c(OC)c2)ccc1O [Free Cur, Curcumin] , its AUC(0-inf) was 14300

====

Test: Oral pharmacokinetic (bioavailability) study in rats
Type: in vivo
Settings: male, Sprague Dawley; rat plasma, single oral dose 150 mg/kg Cur
readout kind: Cmax (µg/mL)
Numbers only here, please. The scale is µg/mL.

// sample COc1cc(/C=C/C(=O)CC(=O)/C=C/c2ccc(O)c(OC)c2)ccc1O [Free Cur, Curcumin] , its Cmax was 1.48
